The reported numbers originate from paper PMC12040969.

Tested on: - MDAMB-231
Assay: Antiproliferative assay (MTT) MDAMB-231
Details: MDAMB-231, 3.125 µM
measure-name: Average of Relative viability of cells (%)
All answers are understood in %, so give the number only.

May I ask what Average of Relative viability of cells (%) has been recorded for Cc1nc(SCC(=O)Nc2nc(-c3ccc(Cl)cc3)cs2)sc1C(=O)/C=C/c1ccccc1 [Compound 10f] ? 79.5

Dear colleague, I am looking for the recorded Average of Relative viability of cells (%) of the following compound: Cc1nc(SCC(=O)Nc2nccs2)sc1C(=O)/C=C/c1ccc(Cl)cc1 [Compound 13b] 68.9

Given the entry COc1ccc(/C=C/C(=O)c2sc(SCC(=O)Nc3nc(-c4ccc(C)cc4)cs3)nc2C)cc1 [Compound 10o] , report its measured Average of Relative viability of cells (%). 47.1

Entry Cc1ccc(/C=C/C(=O)c2sc(SCC(=O)Nc3nccs3)nc2C)cc1 [Compound 13d] has what Average of Relative viability of cells (%)? 57.9

Given the compound Cc1ccc(/C=C/C(=O)c2sc(SCC(=O)Nc3nc(-c4ccccc4)cs3)nc2C)cc1 [Compound 10d] , what is its reported Average of Relative viability of cells (%)? 69.3

So what's the measured Average of Relative viability of cells (%) for this one? Cc1nc(SCC(=O)Nc2nccs2)sc1C(=O)/C=C/c1ccc(F)cc1 [Compound 13c] 93.3

Fill in the blank: the reported Average of Relative viability of cells (%) of Cc1ccc(-c2csc(NC(=O)CSc3nc(C)c(C(=O)/C=C/c4ccc(F)cc4)s3)n2)cc1 [Compound 10m] is ____. 87.1

Please report the recorded Average of Relative viability of cells (%) for Cc1nc(SCC(=O)Nc2nc(-c3ccc(Cl)cc3)cs2)sc1C(=O)/C=C/c1ccc(F)cc1 [Compound 10h] . 85.7
